Value source: patent US20240010721A1

molecular target: ROR1 (antigen of the KD determination and of the Octet dissociation measurement) (UniProt Q01973 30-403, limits assumed); test: method not stated (conventional procedures)
Sequence (Q01973 30-403 limits assumed): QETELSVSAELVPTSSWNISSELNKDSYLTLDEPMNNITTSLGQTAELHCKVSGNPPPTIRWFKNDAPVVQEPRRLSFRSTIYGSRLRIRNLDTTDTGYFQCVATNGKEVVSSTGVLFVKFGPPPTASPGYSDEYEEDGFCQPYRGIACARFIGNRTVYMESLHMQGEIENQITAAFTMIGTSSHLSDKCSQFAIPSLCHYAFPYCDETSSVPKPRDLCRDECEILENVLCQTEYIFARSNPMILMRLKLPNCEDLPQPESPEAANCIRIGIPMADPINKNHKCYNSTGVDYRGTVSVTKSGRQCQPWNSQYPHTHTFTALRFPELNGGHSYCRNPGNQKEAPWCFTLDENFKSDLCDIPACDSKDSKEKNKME
property_name: koff (s⁻¹)
State the answer as a number, implicitly in s⁻¹.

# count of solved cases: 5
Asked: Value lookup for koff; key = PR001361 (antibody, V domains shown, fully human IgG1, kappa) VH: QVQLVQSGGGVVQPGRSLRLSCTASGFTFSRYGMLWVRQAPGKGLEWVAVAWYDGVSEDYADSVKGRFTISRDNSMNTLSLQMNSLRAEDTAVYYCAREQARSFDLWGRGTLVTVSS VL: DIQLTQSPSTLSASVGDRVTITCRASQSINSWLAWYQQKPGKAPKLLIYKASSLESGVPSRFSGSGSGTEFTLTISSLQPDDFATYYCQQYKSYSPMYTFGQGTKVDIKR
Given back: 0.00108

Asked: Looking for the measured koff of PR001370 (antibody, V domains shown, fully human IgG1, kappa) VH: EVQLLESGGGVVQPGRSLRLSCAASGFTFSSYGMHWVRQAPGKGLEWVAVKWYDGISQNFADSVKGRFTISRDNSKNTLYLQMNSLRAEDTAVYYCARDLARSFDLWGRGTLVTVSS VL: DIVMTQSPSTLSASVGDRVTITCRASQSINNWLAWYQQKPGKAPKLLIYKASSLESGVPSRFSGSGSGTEFTLTISSLQPDDFATYYCQQYNSYSPMYTFGQGTKVDIKR , can you help?
Given back: 0.00113

Asked: Could you share which koff value was measured for PR001359 (antibody, human IgG1, kappa, V domains shown, fully human IgG1, kappa) VH: QVQLVESGGGVVQPGRSLRLSCAASGFTFSTYGMHWVRQAPGKGLEWVAVTWYDGSDKDYADSVKGRFTISRDTSKNTLYLQMNSLRAEDTAVYYCAREQARSFDLWGRGTLVTVSS VL: DIVMTQSPSTLSASVGDRVTITCRASQSVNNWLAWYQQKPGKAPKLLIYKASSLESGVPSRFSGSGSGTEFTLTISSLQPDDFATYYCQQYKSYSPMYTFGQGTKVEIKR ?
Given back: 0.000637

Asked: Entry PR001358 (antibody, human IgG1, kappa, V domains shown, fully human IgG1, kappa) VH: QVQLVQSGGGVVQPGRSLRLSCAASGFTFSSYAMHWVRQAPGKGLEWVAIMWYDGSNTDYADSVKGRFTISRDTSKNTLFLQMNSLRAEDTAVYYCAREQARSFDLWGRGTLVTVSS VL: DIVMTQSPSTLSASVGDRVTITCRASQSINSWLAWYQQKPGKAPKLLIYKASNLESGVPSRFSGSGSGTEFTLTISSLQPDDFATYYCQQYKSYSPMYTFGQGTKVDIKR : reported koff = ?
Given back: 0.000518

Asked: Recorded koff for PR001354 (antibody, human IgG1, kappa, V domains shown, fully human IgG1, kappa; also called anti-ROR1 1015M2-C9 hIgG1; PR001354(WT)) VH: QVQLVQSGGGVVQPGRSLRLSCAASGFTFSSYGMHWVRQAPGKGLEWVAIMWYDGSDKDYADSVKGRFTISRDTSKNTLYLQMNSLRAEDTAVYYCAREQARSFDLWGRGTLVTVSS VL: DIVMTQSPSSLSASVGDRVTITCRASQTINNWLAWYQQKPGKAPKLLIYKASSLESGVPSRFSGSGSGTEFTLTISSLQPDDFATYYCQQYNSYSPMYTFGQGTKVEIKR , please?
Given back: 0.000383

Further cases:
Asked: # query: koff of entry PR001363 (antibody, human IgG1, kappa, V domains shown, fully human IgG1, kappa) VH: QVQLVESGGGVVQPGRSLRLSCAASGFSFSSYAMHWVRQAPGRGLEWVAVIWYDGGDEDSIDSVKGRFTISRDDSKNTLYLQMNSLRAEDTAVYYCAREQARSFDLWGRGTLVTVSS VL: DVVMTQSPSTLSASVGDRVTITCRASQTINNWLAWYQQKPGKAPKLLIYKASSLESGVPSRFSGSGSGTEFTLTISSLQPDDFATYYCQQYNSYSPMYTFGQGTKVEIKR
Given back: 0.00101

Asked: Consider the binder PR001367 (antibody, human IgG1, kappa, V domains shown, fully human IgG1, kappa) VH: QVQLVESGGGVVQPGRSLRLSCAASGFSFSSYAMHWVRQAPGRGLEWVAVIWYDGGDEDYIDSVKGRFTISRDDSKNTLYLQMNSLRAEDTAVYYCAREQARSFDLWGRGTLVTVSS VL: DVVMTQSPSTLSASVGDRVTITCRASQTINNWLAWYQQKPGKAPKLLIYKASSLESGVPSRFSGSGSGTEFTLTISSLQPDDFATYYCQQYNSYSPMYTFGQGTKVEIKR and give its measured koff.
Given back: 0.00104

Asked: koff for Positive control antibody (PR000374) (antibody, human IgG1, kappa, V domains shown) VH: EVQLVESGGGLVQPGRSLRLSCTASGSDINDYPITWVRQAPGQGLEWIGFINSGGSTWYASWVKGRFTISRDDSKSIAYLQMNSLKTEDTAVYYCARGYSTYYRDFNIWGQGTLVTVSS VL: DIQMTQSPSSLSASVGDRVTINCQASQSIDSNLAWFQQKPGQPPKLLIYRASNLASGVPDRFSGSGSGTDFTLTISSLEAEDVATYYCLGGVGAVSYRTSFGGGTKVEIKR ?
Given back: 0.000173

Asked: Entry PR001418 (antibody, human IgG1, kappa, V domains shown, fully human IgG1, kappa) VH: QVQLVESGGGVVQPGRSLRLSCAASGFTFSSYGMHWVRQAPGKGLEWVAVIWYDGSDKDYADSVKGRFTISRDTSKNTLYLQMNSLRAEDTAVYYCAREQARSFDLWGRGTLVTVSS VL: DIVMTQSPSTLSASVGDRVTITCRASQTINNWLAWYQQKPGKAPKLLIYKASSLESGVPSRFSGSGSGTEFTLTISSLQPDDFATYYCQQYNSYSPMYTFGQGTKLEIKR : reported koff = ?
Given back: 0.000423

Asked: // returns reported koff for input PR001369 (antibody, human IgG1, kappa, V domains shown, fully human IgG1, kappa; also called anti-ROR1 1015M3-H10 hIgG1; PR001369(WT)) VH: QVQLVESGGGVVQPGRSLRLSCAASGFTFSNYGIHWVRQAPGKGLEWVAIMWYDGSNTDYADSVKGRFTISRDTSKNTLFLQMNSLRAEDTAVYYCAREQARSFDLWGRGTLVTVSS VL: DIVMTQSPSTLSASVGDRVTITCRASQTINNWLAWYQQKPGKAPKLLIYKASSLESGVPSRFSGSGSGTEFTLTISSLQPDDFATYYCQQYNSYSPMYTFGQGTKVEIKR
Given back: 0.000519
